Here the recorded log10(IC50) is given for each entry.
Biological target: A*6801 (Homo sapiens, UniProt P04439, A269V/D185E/E176V/E277Q/E87N/F33Y/G231S/I121M/I166T/I218V/L180W/L300P/L318F/N151K/P208A/P217A/Q86R/R169H/T345S)
Test: biochemical
Format: binding
No end group written: not given here.
Values reflect log10 of reported IC50 (nM).

Some solved cases for reference:
> print(dat)
                           chain  reported.property  test.value
1  VTVYDGVPVWK [Peptide 1539.09]        log10(IC50)        2.56
2    VIDSPAGQA [Peptide 78.0316]        log10(IC50)        2.99
3  TTITVYAEPPR [Peptide 1556.07]        log10(IC50)        1.30

Give its log10(IC50) value. Item: TFPNPFPFDK [Peptide 88.0162]
3.05

Another: SSLARRHMAR [Peptide 9017.0193]
2.94

Another: DLPSQIEHWK [Peptide 88.0212]
1.40

Another: GVSIEWRLRR [Peptide 9017.0220]
3.65

Another: TLTYISTSQR [Peptide 88.0211]
1.75

Another: AQVLHLLKR [Peptide 88.0364]
4.29

Another: STCMGGMNR [Peptide 1556.61]
3.21

Another: KTDEGGDWK [Peptide 88.0380]
4.00
